From: paper PMC9862111

Test system: Colo 205
Assay: Antiproliferative MTT assay, 72 h
Assay type: cell-based, human
Details: Homo sapiens, COLO 205, 72 h, MTT, 72 h, 6 × 10^3 cells/well, sensitive colon adenocarcinoma
Description: Antiproliferative Assays: The antiproliferative effect of the compounds was tested in decreasing serial dilutions of compounds (starting with 100 µM, then two-fold serial dilution) on human cell lines (Colo 205, Colo 320, MCF-7, A549, and MRC-5) in 96-well flat-bottomed microtiter plates. […] IC50 values and the standard deviation (SD) of triplicate experiments were calculated using GraphPad Prism 5 software for Windows. […]
pIC50: −log10 of the molar value.
pIC50 overview
MEASUREMENT TYPE: pIC50

COMPOUND | SUBJECT OF TEST | MEASUREMENT TYPE | DATA VALUE
COc1cccc2c1C(=O)c1c(O)c3c(c(O)c1C2=O)C[C@@](O)(C(=O)CO)C[C@@H]3O[C@H]1C[C@H](N)[C@H](O)[C@H](C)O1 [Dox, doxorubicin, reference compound] | Colo 205 | pIC50 | 7.21
COC(=O)C[C@@](C)(O)CC(=O)O[C@@H]1C[C@]2(C)C3=C(C(=O)C[C@H]2C(C)(C)[C@H]1OC(C)=O)[C@]1(C)CC[C@H]([C@H](C)CCC(=O)C(C)(C)O)[C@@]1(C)CC3=O | Colo 205 | pIC50 | 4.63
COC(=O)CC(C)(O)CC(=O)OC1C(O)CC2(C)C3=C(C(=O)CC2C1(C)C)C1(C)CCC(C(C)CCC(=O)C(C)(C)O)C1(C)CC3 (stereo not drawn) | Colo 205 | pIC50 | 4.49
CC(=O)O[C@H]1[C@H](OC(=O)C[C@](C)(O)CC(=O)O)C[C@]2(C)C3=CC[C@]4(C)[C@@H]([C@H](C)CCC(=O)C(C)(C)O)CC[C@@]4(C)C3=CC[C@H]2C1(C)C | Colo 205 | pIC50 | 4.30
COC(=O)CC(C)(O)CC(=O)OC1CC2(C)C3=C(C(=O)CC2C(C)(C)C1OC(C)=O)C1(C)CCC(C(C)CCC(=O)C(C)(C)O)C1(C)CC3O (stereo not drawn) | Colo 205 | pIC50 | 4.62
COC(=O)C[C@@](C)(O)CC(=O)O[C@@H]1C[C@]2(C)C3=C(C(=O)C[C@H]2C(C)(C)[C@H]1OC(C)=O)[C@]1(C)CC[C@H]([C@H](C)CCC(=O)O)[C@@]1(C)CC3 | Colo 205 | pIC50 | 4.22

###

Test: Cytotoxic MTT assay, 24 h
Settings: human, MRC-5 embryonic lung fibroblast cells

COMPOUND | IC50 at 24 h [µM]
COc1cccc2c1C(=O)c1c(O)c3c(c(O)c1C2=O)C[C@@](O)(C(=O)CO)C[C@@H]3O[C@H]1C[C@H](N)[C@H](O)[C@H](C)O1 [Dox, doxorubicin, reference compound] | 3.6

###

RR (relative resistance ratio) (B/A) overview
Test system: Colo 320
Assay: Cytotoxic MTT assay, 24 h
Conditions: IC50 resistant (Colo 320)/IC50 sensitive (Colo 205), cytotoxic assay

COMPOUND | RR (relative resistance ratio) (B/A)
COC(=O)C[C@@](C)(O)CC(=O)O[C@@H]1C[C@]2(C)C3=C(C(=O)C[C@H]2C(C)(C)[C@H]1OC(C)=O)[C@]1(C)CC[C@H]([C@H](C)CCC(=O)C(C)(C)O)[C@@]1(C)CC3=O [Compound 4, pholiol O] | 2.90
COC(=O)C[C@@](C)(O)CC(=O)O[C@@H]1C[C@]2(C)C3=C(C(=O)C[C@H]2C(C)(C)[C@H]1OC(C)=O)[C@]1(C)CC[C@H]([C@H](C)CCC(=O)O)[C@@]1(C)CC3 [Compound 8, pholiol S] | 1.0
